Here the recorded absorption maximum is given for each entry.
assay: solvent given as SMILES; conditions: in CCOC(C)=O

Solved cases below.
COC1=[N+]2C(=C(c3ccc(C)cc3)c3ccc(OC)n3[B-]2(F)F)C=C1 :: 512 nm
CCN(CC)c1ccc2cc(/C(Cl)=C/C=C/C(=C(C#N)C#N)c3ccc4c(c3)c3ccccc3n4CC)c(=O)oc2c1 :: 508 nm
CC1(C)CC(/C=C/c2ccc(-n3c4ccccc4c4ccccc43)cc2)=CC(=C(C#N)C#N)C1 :: 407 nm

Note: attention shifts to another entry.
Suppose we examine the compound C(=C\c1ccc(/C=C/c2ccc(N(c3ccccc3)c3ccccc3)cc2)c2nsnc12)/c1ccc(N(c2ccccc2)c2ccccc2)cc1 ; what absorption maximum value has been reported?
502 nm

###

Here the recorded absorption maximum is given for each entry.
test: solvent given as SMILES; details: in ClC(Cl)Cl

CCN(CC)c1ccc2c(-c3ccccc3C(=O)O)c3c([o+]c2c1)/C(=C/Nc1ccccc1)CCC3 :: 608 nm
CCCCN1C(=O)c2cc(Oc3ccc(C(C)(C)C)cc3)c3c4c(Oc5ccc(C(C)(C)C)cc5)cc5c6c(cc(Oc7ccc(C(C)(C)C)cc7)c(c7c(Oc8ccc(C(C)(C)C)cc8)cc(c2c37)C1=O)c64)C(=O)N(CCCC)C5=O :: 582 nm
O=C(/C=C/c1cn(-c2ccccc2)nc1-c1ccccc1)c1c(O)c2ccccc2oc1=O :: 405 nm

Note: attention shifts to another entry.
Suppose we examine the molecule CCCCCCCCCCN1C(=O)c2cc(NCCCOCCO)c3c4c(cc(NCCCOCCO)c(c24)C1=O)C(=O)N(CCCCCCCCCC)C3=O ; what absorption maximum value has been reported?
609 nm

###

test: solvent given as SMILES; details: in ClCCl
experimental.endpoint: absorption maximum (nm)
Write it as a number; the unit nm goes unstated.

Solved cases below.
CCCCCCCCCCCCN1C(=O)c2c(c3ccc4cc(-c5ccc(Cl)cc5)c(OC)cc4c3c3c2ccc2cc(-c4ccc(Cl)cc4)c(OC)cc23)C1=O :: 430
CCCCN1C(=O)c2cccc3c(C#CC#Cc4ccc5c6c(cccc46)C(=O)N(CCCC)C5=O)ccc(c23)C1=O :: 372
CCN(CC)c1ccc2c(c1)oc(=O)c1c(C)nc3c(c(-c4ccccc4)nn3-c3ccccc3)c12 :: 410

Suppose we examine the compound CC(=O)c1ccc(/N=N/c2ccc(Nc3ccccc3)cc2)cc1 ; what absorption maximum value has been reported?
432

###

Here the recorded absorption maximum is given for each entry.
test: solvent given as SMILES; conditions: in ClCCl
Write it as a number; the unit nm goes unstated.

Solved cases below.
CC1=CC(C)=[N+]2C1=C(c1ccc(-c3c4ccccc4c(-c4ccccc4)c4ccccc34)cc1)c1c(C)cc(C)n1[B-]2(F)F :: 502
CN(C)c1ccc2cc(C3=[O+][B-](F)(F)OC(c4ccccc4)=C3)ccc2c1 :: 504

Note: attention shifts to another entry.
Suppose we examine the compound c1ccc(C2=C(c3ccccc3)c3cccc4c3c(cc3nc5ccccc5nc34)O2)cc1 ; what absorption maximum value has been reported?
494

###

assay: solvent given as SMILES; details: in CCOC(C)=O
Respond with criterion met for absorption maximum values of 400 nm and above, criterion not met for values below.

Given the entry COc1ccc2n1[B-](F)(F)[N+]1=CC=CC1=C2c1ccccc1 , answer whether its absorption maximum meets or surpasses 400 nm.
criterion met
